- Test system: NCI60 cell lines
- assay protocol: NCI60 cell line panel
- Assay type: cell-based, human
- run conditions: Colon Cancer, HCT-116
measurement label: GIPRCNT: % Growth inhibition (%)

| compound | units text | observed result |
| --- | --- | --- |
| CCN(CC)CCCC(C)Nc1cnc(C(=O)Nc2ccc(Cl)c3cccnc23)cn1 (centres unmarked) | % | −52.4351 |
| CCN(CC)CCCC(C)Nc1cnc(C(=O)Nc2cccc3ccc(OC)nc23)cn1 (centres unmarked) | % | −36.0085 |
| CCN(CC)CCCC(C)Nc1cnc(C(=O)Nc2cc(C)cc3cccnc23)cn1 (centres unmarked) | % | 18.05 |
| CCN(CC)CCCC(C)Nc1cnc(C(=O)Nc2cc(F)cc3cccnc23)cn1 (centres unmarked) | % | 9.52 |
| O=C(Nc1cc(F)cc2cccnc12)c1cnc(N2CCNCC2)cn1 | % | 11 |

====

- System: NCI60 cell lines
- assay protocol: NCI60 cell line panel
- Format: cell-based, human
- run conditions: Colon Cancer, HT29
measurement label: GIPRCNT: % Growth inhibition

| molecule | measurement label | observed result |
| --- | --- | --- |
| CCN(CC)CCCC(C)Nc1cnc(C(=O)Nc2cc(C)cc3cccnc23)cn1 (centres unmarked) | GIPRCNT: % Growth inhibition | 37.31% |
| CCN(CC)CCCC(C)Nc1cnc(C(=O)Nc2ccc(Cl)c3cccnc23)cn1 (centres unmarked) | GIPRCNT: % Growth inhibition | −49.3651% |
| CCN(CC)CCCC(C)Nc1cnc(C(=O)Nc2cccc3ccc(OC)nc23)cn1 (centres unmarked) | GIPRCNT: % Growth inhibition | −47.1759% |
| CCN(CC)CCCC(C)Nc1cnc(C(=O)Nc2cc(F)cc3cccnc23)cn1 (centres unmarked) | GIPRCNT: % Growth inhibition | 11.8% |
| O=C(Nc1cc(F)cc2cccnc12)c1cnc(N2CCNCC2)cn1 | GIPRCNT: % Growth inhibition | 36.78% |

====

- Test system: NCI60 cell lines
- assay protocol: NCI60 cell line panel
- Assay type: cell-based, human
- run conditions: Leukemia, SR
Quick list: GIPRCNT: % Growth inhibition per entry.
measurement label: GIPRCNT: % Growth inhibition

| molecule | measured target | measurement label | observed result |
| --- | --- | --- | --- |
| CCN(CC)CCCC(C)Nc1cnc(C(=O)Nc2cc(F)cc3cccnc23)cn1 (centres unmarked) | NCI60 cell lines | GIPRCNT: % Growth inhibition | 2.839% |
| O=C(Nc1cc(F)cc2cccnc12)c1cnc(N2CCNCC2)cn1 | NCI60 cell lines | GIPRCNT: % Growth inhibition | 29.46% |
| CCN(CC)CCCC(C)Nc1cnc(C(=O)Nc2cccc3ccc(OC)nc23)cn1 (centres unmarked) | NCI60 cell lines | GIPRCNT: % Growth inhibition | −5.71% |
| CCN(CC)CCCC(C)Nc1cnc(C(=O)Nc2ccc(Cl)c3cccnc23)cn1 (centres unmarked) | NCI60 cell lines | GIPRCNT: % Growth inhibition | 1.416% |
| CCN(CC)CCCC(C)Nc1cnc(C(=O)Nc2cc(C)cc3cccnc23)cn1 (centres unmarked) | NCI60 cell lines | GIPRCNT: % Growth inhibition | 81.88% |

====

- Test system: NCI60 cell lines
- assay protocol: NCI60 cell line panel
- Format: cell-based, human
- run conditions: Melanoma, SK-MEL-2
measurement label: GIPRCNT: % Growth inhibition (%)

| compound | observed result |
| --- | --- |
| O=C(Nc1cc(F)cc2cccnc12)c1cnc(N2CCNCC2)cn1 [J44] | 104.1313 |
| CCN(CC)CCCC(C)Nc1cnc(C(=O)Nc2ccc(Cl)c3cccnc23)cn1 (centres unmarked) [J9] | 57.84 |
| CCN(CC)CCCC(C)Nc1cnc(C(=O)Nc2cc(F)cc3cccnc23)cn1 (centres unmarked) [J17] | 96.72 |
| CCN(CC)CCCC(C)Nc1cnc(C(=O)Nc2cccc3ccc(OC)nc23)cn1 (centres unmarked) [J11] | 70.47 |
| CCN(CC)CCCC(C)Nc1cnc(C(=O)Nc2cc(C)cc3cccnc23)cn1 (centres unmarked) [J4] | 104.3875 |

====

- Test system: NCI60 cell lines
- assay protocol: NCI60 cell line panel
- Assay type: cell-based, human
- run conditions: Renal Cancer, UO-31
- Method: The Developmental Therapeutics Program (DTP) of NCI has evaluated more than 100,000 pure compounds and more than 34,000 crude extracts against the panel of human tumor cell lines. The resultant data are analyzed using a program called COMPARE, that rank the entire database of tested compounds in the order of the similarity of the responses. […] Thus, the NCI60 databases is highly useful to the cancer research community. […]
Please use yes whenever GIPRCNT: % Growth inhibition is not below 30%, and no whenever it is.

| compound | class label |
| --- | --- |
| CCN(CC)CCCC(C)Nc1cnc(C(=O)Nc2cc(C)cc3cccnc23)cn1 (centres unmarked) [J4] | yes |
| CCN(CC)CCCC(C)Nc1cnc(C(=O)Nc2ccc(Cl)c3cccnc23)cn1 (centres unmarked) [J9] | no |
| O=C(Nc1cc(F)cc2cccnc12)c1cnc(N2CCNCC2)cn1 [J44] | yes |
| CCN(CC)CCCC(C)Nc1cnc(C(=O)Nc2cccc3ccc(OC)nc23)cn1 (centres unmarked) [J11] | yes |

====

Quick list: GIPRCNT: % Growth inhibition per entry.
- Test system: NCI60 cell lines
- assay protocol: NCI60 cell line panel
- Format: cell-based, human
- run conditions: Colon Cancer, HCC-2998
measurement label: GIPRCNT: % Growth inhibition (%)

| compound | measured target | measurement label | observed result |
| --- | --- | --- | --- |
| CCN(CC)CCCC(C)Nc1cnc(C(=O)Nc2ccc(Cl)c3cccnc23)cn1 (centres unmarked) [J9] | NCI60 cell lines | GIPRCNT: % Growth inhibition | 32.59 |
| CCN(CC)CCCC(C)Nc1cnc(C(=O)Nc2cccc3ccc(OC)nc23)cn1 (centres unmarked) [J11] | NCI60 cell lines | GIPRCNT: % Growth inhibition | 90.92 |
| CCN(CC)CCCC(C)Nc1cnc(C(=O)Nc2cc(C)cc3cccnc23)cn1 (centres unmarked) [J4] | NCI60 cell lines | GIPRCNT: % Growth inhibition | 89.8 |
| O=C(Nc1cc(F)cc2cccnc12)c1cnc(N2CCNCC2)cn1 [J44] | NCI60 cell lines | GIPRCNT: % Growth inhibition | 85.58 |
| CCN(CC)CCCC(C)Nc1cnc(C(=O)Nc2cc(F)cc3cccnc23)cn1 (centres unmarked) [J17] | NCI60 cell lines | GIPRCNT: % Growth inhibition | 66.69 |

====

- System: NCI60 cell lines
- assay protocol: NCI60 cell line panel
- Type: cell-based, human
- run conditions: Melanoma, LOX IMVI
measurement label: GIPRCNT: % Growth inhibition (%)

| molecule | observed result |
| --- | --- |
| CCN(CC)CCCC(C)Nc1cnc(C(=O)Nc2cc(C)cc3cccnc23)cn1 (centres unmarked) [J4] | 87 |
| O=C(Nc1cc(F)cc2cccnc12)c1cnc(N2CCNCC2)cn1 [J44] | 65.76 |
| CCN(CC)CCCC(C)Nc1cnc(C(=O)Nc2ccc(Cl)c3cccnc23)cn1 (centres unmarked) [J9] | −83.8894 |
| CCN(CC)CCCC(C)Nc1cnc(C(=O)Nc2cc(F)cc3cccnc23)cn1 (centres unmarked) [J17] | 33.27 |
| CCN(CC)CCCC(C)Nc1cnc(C(=O)Nc2cccc3ccc(OC)nc23)cn1 (centres unmarked) [J11] | −89.8952 |

====

- Test system: NCI60 cell lines
- assay protocol: NCI60 cell line panel
- Type: cell-based, human
- run conditions: CNS Cancer, SNB-19
Quick list: GIPRCNT: % Growth inhibition per entry.
measurement label: GIPRCNT: % Growth inhibition (%)

| compound | observed result |
| --- | --- |
| O=C(Nc1cc(F)cc2cccnc12)c1cnc(N2CCNCC2)cn1 [J44] | 87.74 |
| CCN(CC)CCCC(C)Nc1cnc(C(=O)Nc2cc(F)cc3cccnc23)cn1 (centres unmarked) [J17] | 83.09 |
| CCN(CC)CCCC(C)Nc1cnc(C(=O)Nc2ccc(Cl)c3cccnc23)cn1 (centres unmarked) [J9] | 49.65 |
| CCN(CC)CCCC(C)Nc1cnc(C(=O)Nc2cccc3ccc(OC)nc23)cn1 (centres unmarked) [J11] | 94.85 |
| CCN(CC)CCCC(C)Nc1cnc(C(=O)Nc2cc(C)cc3cccnc23)cn1 (centres unmarked) [J4] | 89.24 |

====

- Tested on: NCI60 cell lines
- assay protocol: NCI60 cell line panel
- Assay type: cell-based, human
- run conditions: Ovarian Cancer, OVCAR-4
measurement label: GIPRCNT: % Growth inhibition (%)

| compound | measurement label | observed result |
| --- | --- | --- |
| CCN(CC)CCCC(C)Nc1cnc(C(=O)Nc2cc(C)cc3cccnc23)cn1 (centres unmarked) | GIPRCNT: % Growth inhibition | 58.85 |
| CCN(CC)CCCC(C)Nc1cnc(C(=O)Nc2ccc(Cl)c3cccnc23)cn1 (centres unmarked) | GIPRCNT: % Growth inhibition | 51.32 |
| O=C(Nc1cc(F)cc2cccnc12)c1cnc(N2CCNCC2)cn1 | GIPRCNT: % Growth inhibition | 6.04 |
| CCN(CC)CCCC(C)Nc1cnc(C(=O)Nc2cccc3ccc(OC)nc23)cn1 (centres unmarked) | GIPRCNT: % Growth inhibition | 98.13 |
| CCN(CC)CCCC(C)Nc1cnc(C(=O)Nc2cc(F)cc3cccnc23)cn1 (centres unmarked) | GIPRCNT: % Growth inhibition | 12.24 |

Reference source for all entries: patent US20220081412A1
